Recorded values, source ChEMBL document CHEMBL4483862.

system: Plasmodium berghei; assay: Luciferase/luciferin-expressing antifolate-resistant parasites were used to infect a culture of HepG2 cells that were pre-incubated with compounds. Infected hepatocytes emit light due to the luciferase reaction. Assay results are presented as the percent inhibition of light emission compared to control. […]; format: functional; details: sporozoite, read-out: LUCIFERASE INFECTION ASSAY - IC90
Record form. Attribute: IC90. Fill in for each entry.

Tell me the measured IC90 of CCCNC(=O)c1c(NC(=O)c2cccc(F)c2)nc2ccc(C)cn12 , please.
> 9.31 µM

Try this molecule next: O=C(Nc1ccc(OC(F)(F)F)cc1)N1CCN(c2cc(C(F)(F)F)nc3ccccc23)CC1
> 6.81 µM

Try this molecule next: O=C(Nc1nc(-c2ccccn2)cs1)C1CCCN(C(=O)c2ccc(Cl)cc2)C1 (stereo not drawn)
> 10 µM

Try this molecule next: FC(F)(F)c1csc(Nc2ccc(Cl)c(Cl)c2)n1
> 10.5 µM

Try this molecule next: CCCNC(=O)COc1ccc(Nc2ccccc2)cc1
> 10 µM

Try this molecule next: O=C1Nc2cc(Cl)ccc2/C1=C\c1nn(Cc2ccccc2)cc1-c1cccnc1
> 10 µM

Try this molecule next: COc1ccc(-n2c(SCc3nc4ccccc4s3)nc3ccccc32)cc1
> 10 µM

Try this molecule next: C(=N\Nc1ncnc2sc3c(c12)CCCC3)/c1c(-c2ccccc2)n(-c2ccccc2)c2ccccc12
> 10 µM

Try this molecule next: COc1ccc(CC(N)c2csc(NC(=O)c3cccc(OC(F)(F)F)c3)n2)cc1 (stereo not drawn)
7.48 µM

Try this molecule next: CCN(c1ccccc1)S(=O)(=O)c1ccc(OCC(=O)N(C)Cc2nc3ccccc3s2)cc1
> 10 µM

Try this molecule next: NC(Cc1ccc(Cl)cc1)c1csc(Nc2ncccn2)n1 (stereo not drawn)
5.31 µM

Try this molecule next: COc1ccc(-c2cn3c(-c4ccc5ncccc5c4)cnc3cn2)cn1
4.4 µM

Try this molecule next: CCC(CC)CN1C[C@H](OCc2ccccc2)C[C@H]1C(=O)NC(c1ccccc1)c1ccccc1
> 7.01 µM

Try this molecule next: COc1ccc(CNc2ncnc3ccsc23)cc1
> 10 µM

Try this molecule next: CCc1cccc(CC)c1N1C(=O)/C(=C\c2ccc(C(C)(C)C)cc2)N(C)C1=S
> 10 µM

Try this molecule next: CCn1c2ccccc2c2cc(Nc3c(C#N)c(=O)n(C)c(=O)n3C)ccc21
0.508 µM

Try this molecule next: CC(C)N(C(=O)CN1CCN(c2ccccc2Cl)CC1)c1ccc(Nc2ccccc2)cc1
> 10 µM

Try this molecule next: COc1ccccc1N1CCN(S(=O)(=O)c2cccc(Cl)c2)CC1
> 9 µM

Try this molecule next: CN1CCN(c2ccc(-c3cn4c(-c5ccccc5Cl)cnc4cn3)cn2)CC1
> 8.15 µM

Try this molecule next: CCOC(=O)C1=C(C)N(S(=O)(=O)c2ccc(C)cc2)C(SC)=NC1c1ccccc1 (stereo not drawn)
> 7.42 µM

Try this molecule next: COc1ccc(N(CCC(N)=O)C(=O)CSc2nc3ccccc3n2-c2ccc(OC)cc2)cc1
> 10 µM

Try this molecule next: CCCn1c(=O)c2ccccc2n2c(SCc3nc(=O)c4ccc(C(=O)O)cc4[nH]3)nnc12
> 10 µM

Try this molecule next: COc1ccc(Sc2sc(C(C)=O)cc2[N+](=O)[O-])cc1
> 10.7 µM

Try this molecule next: Cn1c(SCC(=O)c2ccc(Cl)cc2)nnc1-c1ccc(C(C)(C)C)cc1
> 8.25 µM

Try this molecule next: Cc1csc2sc(COC(=O)Nc3ccccc3)c(C)c12
> 10.4 µM

Try this molecule next: O=C(c1cncn1-c1ccccc1)N1CC=C(c2ccccc2)CC1
> 10 µM

Try this molecule next: Cc1nnc(NC(=O)CN2C(=O)COc3ccc(Cl)cc32)s1
> 9.74 µM

Try this molecule next: CCOc1cc(/C=C/C(=O)c2ccc(N(C)C)cc2)cc(Br)c1OCC(=O)N(C)C
4.93 µM

Try this molecule next: Cc1ccc(-c2cnn3c(N4CCOCC4)cc(C)nc23)cc1
> 10.7 µM

Try this molecule next: O=[N+]([O-])c1ccc(Sc2ccc(F)cc2)c2nonc12
> 11.3 µM

Try this molecule next: FC(F)(F)c1c(-c2nc(-c3ccc(Cl)cc3)no2)cnn1-c1ccccc1
1.19 µM

Try this molecule next: COc1ccc(-c2nnc(SCC(=O)c3cc(F)ccc3OC)[nH]2)cc1
> 10 µM

Try this molecule next: CC(C)CC(N)c1csc(Nc2nncc3ccccc23)n1 (stereo not drawn)
4.43 µM

Try this molecule next: O=c1cc(CSc2nc3ccccc3c(=O)n2Cc2ccccc2)c2cc(O)c(O)cc2o1
> 10 µM

Try this molecule next: CCC(C)NC(=O)c1c(NC(=O)c2cc(OC)cc(OC)c2)nc2ccc(C)cn12 (stereo not drawn)
2.79 µM

Try this molecule next: O=C(N/N=C/c1sc(Nc2ccccc2)nc1Cl)c1cc(-c2ccncc2)nc2ccccc12
> 10 µM

Try this molecule next: CC(Cn1cccn1)NC(=O)C(=O)Nc1ccccc1SC1CCCC1 (stereo not drawn)
5.88 µM

Try this molecule next: CCOC(=O)c1sc(SCc2ccccc2)c2c1CC(c1ccccc1)CC2=O (stereo not drawn)
> 7.81 µM

Try this molecule next: O=C(Nc1nc2ccccn2c1C(=O)NC1CCCC1)c1ccc(F)c(F)c1
3.18 µM

Try this molecule next: O=C(Nc1cccc(Cl)c1)c1csc(C(O)C2CCCCC2)n1 (stereo not drawn)
> 10 µM

Try this molecule next: Cc1cc(C)n2nc(SC(C)C(=O)N3CCCc4ccccc43)nc2n1 (stereo not drawn)
> 2 µM

Try this molecule next: COc1cc(-c2ccc3ncc(-c4cccs4)n3n2)cc(OC)c1OC
4.08 µM

Try this molecule next: COc1ccc(-c2nc(C(=O)NC3CC3)cc3c2[nH]c2ccccc23)cc1
7.59 µM

---

Record form. Attribute: IC90. Fill in for each entry.
tested on: Plasmodium berghei; assay: Luciferase/luciferin-expressing antifolate-resistant parasites were used to infect a culture of HepG2 cells that were pre-incubated with compounds. Infected hepatocytes emit light due to the luciferase reaction. Assay results are presented as the percent inhibition of light emission compared to control. […]; type: functional; conditions: sporozoite, read-out: LUCIFERASE INFECTION ASSAY - IC90

Tell me the measured IC90 of COc1cc(/C=C/C(=O)c2cccc(Cl)c2)cc(Br)c1OCC(=O)N(C)C , please.
4.57 µM

Try this compound next: Cc1ccc(N2C(=O)N(CC(=O)N3CCc4ccccc43)C(=O)C2C)cc1 (configuration not stated)
> 2 µM

Try this compound next: C/C(=N\NC(=N)N)c1ccc(Br)cc1
> 12.9 µM

Try this compound next: Cc1ccc(-n2c(SCC(=O)NC34CC5CC(CC(C5)C3)C4)nnc2-c2ccccc2)cc1C
> 10 µM

Try this compound next: Cc1nc(C(C)(C)C)nc2sc(C(=O)NNC(=O)c3ccccn3)c(C)c12
> 10 µM

Try this compound next: Cc1cccc(C(=O)Nc2nnc(SCc3ccc(C#N)cc3)s2)n1
6.71 µM

Try this compound next: Cn1c(-c2ccccc2)nc2cnc(-c3ccc(N)nc3)cc21
> 10 µM

Try this compound next: O=C(CN1CCN(c2ccc(C(F)(F)F)cn2)CC1)N1CCC(c2nc3ccccc3s2)CC1
> 10 µM

Try this compound next: COc1cc(C(=O)OCc2c(C)cc(C(C)(C)C)cc2C)cc(OC)c1OC
> 10 µM

Try this compound next: Cc1nn(-c2ccccc2)c(N2CCCC2)c1/C=N/O
> 10 µM

Try this compound next: Cc1ccc(C)c(OCCCN2C(=O)NC(Cc3c[nH]c4ccccc34)C2=O)c1 (configuration not stated)
> 10 µM

Try this compound next: Cc1ccc(C(=O)Nc2nc(-c3ccccn3)cs2)cc1S(=O)(=O)N1CCOCC1
9.81 µM

Try this compound next: COc1ccc(NC(=O)c2cc(N(C)Cc3ccccc3)ncn2)cn1
7.26 µM

Try this compound next: O=C1NCCN1CCNc1nn2c(-c3cccc(OC(F)(F)F)c3)cnc2s1
> 8 µM

Try this compound next: Cc1ccc2nc(NC(=O)C(C)Oc3ccccc3)c(C(=O)NC3CCCC3)n2c1 (configuration not stated)
6.95 µM

Try this compound next: O=C1CC(c2cccc3ccccc23)c2c([nH]c(-c3ccccc3)nc2=O)N1 (configuration not stated)
> 8.98 µM

Try this compound next: Cc1ccc(CC(=O)NCc2ccc(C#N)cc2)cc1
8.45 µM

Try this compound next: O=c1c2ccccc2sc2nc(C3CCCCC3)n(Cc3ccco3)c(=O)c12
> 8.41 µM

Try this compound next: CN(Cc1ccccc1)C(=O)Nc1cccc2ncccc12
> 10 µM

Try this compound next: CCc1c(C)sc2nc(SCC3COc4ccccc4O3)n(-c3ccc(O)cc3C)c(=O)c12 (configuration not stated)
> 10 µM

Try this compound next: Cc1ccc2nc(NC(=O)c3cccc(Cl)c3)c(C(=O)NC3CCCC3)n2c1
1.47 µM

Try this compound next: COC(=O)c1occc1/C=C/C(=O)c1ccc(OCc2ccccc2)cc1
> 10 µM
